Where do the numbers come from? From patent US20080255175A1.

assay: Body weight of nude mice in the NCI-H460 xenograft study; assay type: in vivo, BALB/c nude mice; settings: after four weeks, twice every week; Dosage 1: topotecan 2 i.v., Compound 1 0.625 i.p., Compound 2 5 i.v., Compound 3 1.5625 i.v. (mg/kg); model 22.07 ± 1.68

{"columns": ["Molecule", "Ending Body Weight, g"],
 "data": [
  ["CCCS(=O)(=O)Oc1ccc2nc3c(cc2c1CN(C)C)Cn1c-3cc2c(c1=O)COC(=O)C2(CC)OC(=O)CNC(=O)/C=C\\C(=O)O (stereo not shown)", 18.93],
  ["CC[C@@]1(OC(=O)CNC(=O)/C=C\\C(=O)O)C(=O)OCc2c1cc1n(c2=O)Cc2cc3c(CN(C)C)c(OS(=O)(=O)C(C)C)ccc3nc2-1", 19.63],
  ["CCC1(OC(=O)CNC(=O)/C=C\\C(=O)O)C(=O)OCc2c1cc1n(c2=O)Cc2cc3ccccc3nc2-1 (stereo not shown)", 18.86],
  ["CC[C@@]1(O)C(=O)OCc2c1cc1n(c2=O)Cc2cc3c(CN(C)C)c(O)ccc3nc2-1 [topotecan, Topotecan, reference compound]", 17.32]
]}

###

system: NCI-H460 human non-small cell lung cancer; assay: NCI-H460 human non-small cell lung cancer nude mice xenograft model; assay type: in vivo, BALB/c nude mice; conditions: after four weeks; Dosage 1: topotecan 2 i.v., Compound 1 0.625 i.p., Compound 2 5 i.v., Compound 3 1.5625 i.v. (mg/kg)
The following molecules are shown together with reported Tumor Inhibitory Growth Weight values.
Measure Name: Tumor Inhibitory Growth Weight

{"columns": ["Molecule", "Target Under Test", "Measure Name", "Quantitative Readout"],
 "data": [
  ["CC[C@@]1(OC(=O)CNC(=O)/C=C\\C(=O)O)C(=O)OCc2c1cc1n(c2=O)Cc2cc3c(CN(C)C)c(OS(=O)(=O)C(C)C)ccc3nc2-1 [Compound 3]", "NCI-H460 human non-small cell lung cancer", "Tumor Inhibitory Growth Weight", 55.8],
  ["CCCS(=O)(=O)Oc1ccc2nc3c(cc2c1CN(C)C)Cn1c-3cc2c(c1=O)COC(=O)C2(CC)OC(=O)CNC(=O)/C=C\\C(=O)O (stereo not shown) [Compound 2]", "NCI-H460 human non-small cell lung cancer", "Tumor Inhibitory Growth Weight", 49.7],
  ["CC[C@@]1(O)C(=O)OCc2c1cc1n(c2=O)Cc2cc3c(CN(C)C)c(O)ccc3nc2-1 [topotecan, Topotecan, reference compound]", "NCI-H460 human non-small cell lung cancer", "Tumor Inhibitory Growth Weight", 48.7],
  ["CCC1(OC(=O)CNC(=O)/C=C\\C(=O)O)C(=O)OCc2c1cc1n(c2=O)Cc2cc3ccccc3nc2-1 (stereo not shown) [Compound 1]", "NCI-H460 human non-small cell lung cancer", "Tumor Inhibitory Growth Weight", 42.5]
]}

###

system: NCI-H460 human non-small cell lung cancer; assay: NCI-H460 human non-small cell lung cancer nude mice xenograft model; assay type: in vivo, BALB/c nude mice; conditions: 1.5 weeks; Dosage 1: topotecan 2, Compound 1 0.625, Compound 2 5, Compound 3 1.5625 mg/kg
# Tumor Volume listing for each entry below
Measure Name: Tumor Volume (mm3)

{"columns": ["Compound", "Unit Label", "Quantitative Readout"],
 "data": [
  ["CCCS(=O)(=O)Oc1ccc2nc3c(cc2c1CN(C)C)Cn1c-3cc2c(c1=O)COC(=O)C2(CC)OC(=O)CNC(=O)/C=C\\C(=O)O (stereo not shown) [Compound 2]", "mm3", 602.1],
  ["CC[C@@]1(O)C(=O)OCc2c1cc1n(c2=O)Cc2cc3c(CN(C)C)c(O)ccc3nc2-1 [topotecan, Topotecan, reference compound]", "mm3", 759.8],
  ["CCC1(OC(=O)CNC(=O)/C=C\\C(=O)O)C(=O)OCc2c1cc1n(c2=O)Cc2cc3ccccc3nc2-1 (stereo not shown) [Compound 1]", "mm3", 706.7],
  ["CC[C@@]1(OC(=O)CNC(=O)/C=C\\C(=O)O)C(=O)OCc2c1cc1n(c2=O)Cc2cc3c(CN(C)C)c(OS(=O)(=O)C(C)C)ccc3nc2-1 [Compound 3]", "mm3", 547.2]
]}
